So I've got a bunch of compounds here, and I need their z-score values.
Test: HepG2 liver cancer cell viability effects, profiling panel, resazurin fluorescence, 24 h, PK04 Diversity Set (AID 1172); further: test concentration not given here
Conditions: higher = more signal
Answers are plain numbers.

CCCCN1CC=CC23O[C@@H]4/C=C\CCCOC(=O)C4[C@H]2C(=O)N(CCCCCCO)[C@@H]3C1=O (some centres not stated)
0.646
O=C1NC(=O)C2C1C=CC(C(O)C(c1ccccc1)c1ccccc1)N2Nc1ccccn1 (configuration not stated)
-0.187
CC[C@@H]1C=C(C(=O)O)[C@H](c2cccc(Cl)c2)N1S(=O)(=O)c1ccc(C)cc1
-0.722

// batch mode: one z-score value per listed entry
1. COc1ccc([Si](C)(C)[C@@H]2[C@@H](CC(=O)N3Cc4ccccc4C[C@H]3CO)O[C@]3(C(=O)N(Cc4ccc(I)cc4)c4ccccc43)[C@H]2C)cc1
2. [N-]=[N+]=NCc1ccccc1C[C@]1(C(=O)N2CCCCC2)COC(c2ccc(OCCCO)cc2)=N1
3. Cc1ccc(S[C@]2(C(=O)NCCN3CCOCC3)CC(=O)N(C(C)C)[C@@H]2c2ccc(CO)cc2I)cc1
4. COc1ccc([Si](C)(C)[C@@H]2[C@@H](CC(=O)N(CCO)Cc3ccccc3)O[C@]3(C(=O)N(Cc4cccc(I)c4)c4ccccc43)[C@H]2C)cc1

0.454
0.894
0.124
-2.2

* * *

Assay: binders of probe aFGF2 on microarray, primary screen, stem cell growth factor project, biochemical, small-molecule microarray, fluorescence 635/667 (AID 1067);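 further: measures binding of biotinylated aFGF2 protein to printed compounds on slides; z-score merges feature fluorescence and signal-to-noise across triplicate slides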
Conditions: higher = more signal
measurement_name: composite z-score

Worked examples follow.
CCCC=C(CCC)[C@@H](NC(=O)c1ccc(C(=O)OC)cc1)c1ccc(C(=O)OC)cc1
0.355
COc1c(C)cc(-c2cc3c(c(CCc4ccccc4)n2)[Si](C(C)C)(C(C)C)O[C@H]3c2ccccc2)cc1C
-0.166
COCCOC(=O)N1C(=O)[C@@]2(c3cc(C#CC4=CCCCC4)ccc31)[C@H](c1ccc(O)cc1)N1[C@H](c3ccccc3)[C@H](c3ccccc3)OC(=O)[C@H]1[C@@H]2C(=O)N1CCc2cc(OC)c(OC)cc2C1
-0.0824
OCCCc1cc[n+](Cc2cc3c(cc2Br)OCO3)cc1
-0.116
COc1cc2c(cc1O)C(C)N(Cc1sc3ccccc3c1Cl)CC2 (stereo not drawn)
-0.17

Count: 3. Required value per item: composite z-score.
1. [N-]=[N+]=NCc1ccccc1[C@H]1OC(c2ccc(OCCCO)cc2)=N[C@@]1(Cc1ccccc1N=[N+]=[N-])C(=O)N1CCOCC1
2. [N-]=[N+]=NCc1ccccc1[C@H]1OC(c2ccc(OCCCO)cc2)=N[C@@]1(Cc1ccccc1N=[N+]=[N-])C(N)=O
3. O=C1N(Cc2ccccc2)Cc2ccccc2C[C@@]12COC(c1ccc(OCCCO)cc1)=N2

0.156
0.05
-0.0428

* * *

Biological target: Calmodulin-1 (Homo sapiens)
Assay: CALM1 binders on microarrays, EGTA buffer, profiling panel, biochemical, small-molecule microarray, Cy5-labelled CALM1 (AID 1111);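 further: labelled calmodulin applied in Tris saline Tween buffer holding calcium plus EGTA and DTT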
Conditions: Cy5-CALM1 binding fluorescence, higher = more signal
Field: composite z-score. Provide a value for each of the molecules that follow.

Some molecules with known composite z-score results, for comparison:
Cc1ccc(N2C(=O)c3ccccc3[C@@H](C(=O)NCCN3CCOCC3)[C@@H]2c2ccc(CO)cc2)nc1
-0.287
COC(=O)[C@@]1(Cc2ccc(F)cc2)[C@H]2c3cc(C(=O)N4CCCC4)n(C[C@H](O)CO)c3C[C@H]2CN1C(=O)c1ccccc1
2.69
COCCOC(=O)N1C(=O)[C@@]2(c3cc(C#CCC(C(=O)OC)C(=O)OC)ccc31)[C@H](c1ccc(O)cc1)N1[C@H](c3ccccc3)[C@H](c3ccccc3)OC(=O)[C@H]1[C@@H]2C(=O)N1CCc2cc(OC)c(OC)cc2C1
0.505
COc1cccc(C)c1NC(=O)O[C@H]1[C@H](OC(=O)Nc2ccccc2-c2ccccc2)[C@@H](OC(=O)Nc2ccccc2-c2ccccc2)[C@@H](OC)O[C@@H]1CO
1.75
COC(=O)[C@@]1(Cc2ccc(F)cc2)[C@H]2c3cc(C(=O)N(C)C)n(Cc4cccc5ccccc45)c3C[C@H]2CN1C(=O)c1ccccc1
0.0818

Now consider the entry below.
Read off the recorded composite z-score for COc1ccc(-c2cc3c(c(CCc4ccccc4)n2)[Si](C(C)C)(C(C)C)O[C@H]3c2ccccc2)cn1
-0.0526
